Target: T1, GFP-9S library array, motif 4 ND D124N (synthetic construct, D124N)
T1 chain: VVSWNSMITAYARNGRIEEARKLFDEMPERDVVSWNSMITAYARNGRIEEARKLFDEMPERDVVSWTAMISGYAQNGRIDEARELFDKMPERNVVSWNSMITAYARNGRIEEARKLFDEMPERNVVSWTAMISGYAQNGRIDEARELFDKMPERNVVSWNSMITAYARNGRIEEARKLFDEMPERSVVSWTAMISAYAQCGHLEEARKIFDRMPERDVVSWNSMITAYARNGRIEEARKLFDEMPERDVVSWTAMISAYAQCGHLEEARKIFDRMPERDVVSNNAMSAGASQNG
Assay: high-throughput RNA pulldown from lysate on Ni-NTA beads; HRP: 50 mM Tris pH 8, 150 mM NaCl, 1 mM beta-mercaptoethanol, 50 ug/ml BSA, 3 ug/ml yeast RNA, 0.5% heparin; ITC and FP: Tris pH 8, 200 mM KCl, 5% glycerol; MST: 50 mM Tris pH 8, 200 mM NaCl, 1 mM DTT, BSA, heparin, 0.05% Tween 20
Details: tags: N-terminal His-eGFP; label: 5' IRDye 800CW
propertyMeasured: Kd (µM)
Numeric only. Scale: µM

[[record]]
binder = "AUUAUACGUGA (ssRNA) [IR-rpoA-U]"
testresult = 0.0116


Next binder, Kd to be filled in.
Query (binder): AUUAAACGUGA (ssRNA) [IR-rpoA-A] ; field requested: Kd
0.114
